system: hTERT-HMEC; test: percentage of EdU-negative (G0-arrested) nuclei per well, 72 h; higher = more G0 arrest; conditions: protein concentration 0.225 µM; reference: sequence is the full UniProt precursor, the tested protein was the secreted form or ectodomain;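 note: secreted proteins added to cultured cells, EdU pulse at the end, nuclei found by Hoechst imaging, EdU status from nuclear versus surrounding ring intensity ratio, PBS as neutral control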
Readout kind: percentage of EdU-negative (%)
Answers are plain numbers, in %.

MQPRRQRLPAPWSGPRGPRPTAPLLALLLLLAPVAAPAGSGDPDDPGQPQDAGVPRRLLQQAARAALHFFNFRSGSPSALRVLAEVQEGRAWINPKEGCKVHVVFSTERYNPESLLQEGEGRLGKCSARVFFKNQKPRPTINVTCTRLIEKKKRQQEDYLLYKQMKQLKNPLEIVSIPDNHGHIDPSLRLIWDLAFLGSSYVMWEMTTQVSHYYLAQLTSVRQWKTNDDTIDFDYTVLLHELSTQEIIPCRIHLVWYPGKPLKVKYHCQELQTPEEASGTEEGSAVVPTELSNF
4.8
MWLLPALLLLCLSGCLSLKGPGSVTGTAGDSLTVWCQYESMYKGYNKYWCRGQYDTSCESIVETKGEEKVERNGRVSIRDHPEALAFTVTMQNLNEDDAGSYWCKIQTVWVLDSWSRDPSDLVRVYVSPAITTPRRTTHPATPPIFLVVNPGRNLSTGEVLTQNSGFRLSSPHFLLVVLLKLPLLLSMLGAVFWVNRPQWAPPGR [Q496F6]
5.97

Now consider the entry below.
Challenge: // returns reported percentage of EdU-negative for input "MAAQGCAASRLLQLLLQLLLLLLLLAAGGARARWRGEGTSAHLRDIFLGRCAEYRALLSPEQRNKNCTAIWEAFKVALDKDPCSVLPSDYDLFINLSRHSIPRDKSLFWENSHLLVNSFADNTRRFMPLSDVLYGRVADFLSWCRQKNDSGLDYQSCPTSEDCENNPVDSFWKRASIQYSKDSSGVIHVMLNGSEPTGAYPIKGFFADYEIPNLQKEKITRIEIWVMHEIGGPNVESCGEGSMKVLEKRLKDMGFQYSCINDYRPVKLLQCVDHSTHPDCALKSAAAATQRKAPSLYTEQRAGLIIPLFLVLASRTQL"
Response given: 5.57
